Recorded values, source the supplement of paper PMC10567573.

B1: C22orf15 (parent)
chain: PRGRAHLLPNPYQQDFLGLPEELR

Variants of: B1
assay.summary: protein stability index of a GFP-peptide fusion (GPS, HEK-293T) (PSI 1-6); higher = more stable;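 also: lentivirally expressed fusions sorted by FACS into six bins by GFP to DsRed ratio, PSI derived from sequencing read proportions per bin multiplied by bin number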
stated.conditions: c terminus: a fixed tail appended
Answer f if protein stability index is under 4, and t if it is 4 or more.

Input: Could you tell me if the measured protein stability index of PRGRAHLLPNPYQPDFLGLPEELR [Q14P] reaches 4 or more?
Output: t

Input: Is the recorded value of protein stability index equal to or greater than 4 for this variant? PRGRAHLLPNPYQQDFMGLPEELR [L17M]
Output: f

Input: Reported protein stability index at or above 4? PRGRAHLLPNPYQLDFLGLPEELR [Q14L]
Output: f

Input: Say whether PRGRAHLLPNPYQQIFLGLPEELR [D15I] shows protein stability index of 4 or more.
Output: f

Input: hey, is protein stability index for this one >= 4? PRGRAHLLFNPYQQDFLGLPEELR [P9F]
Output: f

Input: Does the reported protein stability index for PRGRAHLLPQPYQQDFLGLPEELR [N10Q] fall at or above the 4 mark?
Output: t

Input: Quick check, protein stability index >= 4? PRGRAHLLPNPYQQDFLGLPEQLR [E22Q]
Output: f

Input: Is reported protein stability index greater than or equal to 4 here: PRGRAHLLPNPYQQDFLYLPEELR [G18Y]
Output: f

Input: Can PRGKAHLLPNPYQQDFLGLPEELR [R4K] be said to have protein stability index at or above 4?
Output: f

Input: Would you say PRGRAHLLPNPYNQDFLGLPEELR [Q13N] shows protein stability index at minimum 4?
Output: f

Input: Threshold query (protein stability index >= 4) on PRGIAHLLPNPYQQDFLGLPEELR [R4I]
Output: f

Input: Hi team, for PRGRAHLLPNPYQQDFLGFPEELR [L19F] , is the recorded protein stability index at or above 4?
Output: f

Input: Assess whether reported protein stability index for PRGRAHLLPNPYQGDFLGLPEELR [Q14G] sits at 4 or higher.
Output: f

Input: Would you say PYGRAHLLPNPYQQDFLGLPEELR [R2Y] shows protein stability index at minimum 4?
Output: f

Input: Answer whether protein stability index of PRGRATLLPNPYQQDFLGLPEELR [H6T] is greater than or equal to 4.
Output: f

Input: Given the entry PRGRAHLLPNQYQQDFLGLPEELR [P11Q] , answer whether its protein stability index meets or surpasses 4.
Output: t

Input: Tell me whether protein stability index is at least 4 here: PRGRAHLLRNPYQQDFLGLPEELR [P9R]
Output: f

Input: Could you verify whether the entry PRGRAHLLPNPNQQDFLGLPEELR [Y12N] shows protein stability index of no less than 4?
Output: t

Input: Decide: protein stability index of PRYRAHLLPNPYQQDFLGLPEELR [G3Y] >= 4?
Output: f

Input: Check the entry PRGRAHLLPNPLQQDFLGLPEELR [Y12L] : does protein stability index equal or exceed 4?
Output: f

Input: hey, is protein stability index for this one >= 4? PRNRAHLLPNPYQQDFLGLPEELR [G3N]
Output: f

Input: # check: protein stability index of IRGRAHLLPNPYQQDFLGLPEELR [P1I] is greater than or equal to 4
Output: f
